Hello, the source for this data is paper PMC2867956, in case you need it.

- TESTED_ON: CaM (UniProt P0DP23)
- EXPERIMENT_NOTES: Fluorescence polarization, CaM binding to carboxyfluorescein-labeled TRPV4 peptides
- ASSAY_SETUP: tracer peptide 100 nM, CaM 0.1 nM to 10 µM, 50 mM Tris pH 7.5, 100 mM KCl, 0.1% BSA, triplicate, read-out: CaM binding EC50
No end group written: not given here.
REPORTED_ENDPOINT: EC50 (µM)
// return numeric value only (unit: µM, not printed)

Per the records, this sequence ( RSFPVFLRKAFRSGEMVTVGKSSD [P4] ) has EC50 equal to 5

---

- TESTED_ON: CaM (UniProt P0DP23)
- EXPERIMENT_NOTES: Fluorescence polarization, CaM binding to carboxyfluorescein-labeled TRPV4 peptides
- ASSAY_SETUP: labeled peptide 100 nM, CaM 10 µM or as indicated, 50 mM Tris pH 7.5, 100 mM KCl, 0.1% BSA, value is Ca^2+ concentration, triplicate, read-out: Ca^2+ concentration at half-maximal CaM binding (Ca^2+-dependence, EC50)
No end group written: not given here.
REPORTED_ENDPOINT: EC50 (µM)
// return numeric value only (unit: µM, not printed)

Per the records, this sequence ( GRPNLRMKFQGAFRKGVPNP [P1] ) has EC50 equal to 3.6

Per the records, this sequence ( RSFPVFLRKAFRSGEMVTVGKSSD [P4] ) has EC50 equal to 7.3
